- tested_target: cyno c-Kit (SPR) (cyno, UniProt F6V858 26-520 (rhesus entry))
- Sequence (chain, as listed by the source): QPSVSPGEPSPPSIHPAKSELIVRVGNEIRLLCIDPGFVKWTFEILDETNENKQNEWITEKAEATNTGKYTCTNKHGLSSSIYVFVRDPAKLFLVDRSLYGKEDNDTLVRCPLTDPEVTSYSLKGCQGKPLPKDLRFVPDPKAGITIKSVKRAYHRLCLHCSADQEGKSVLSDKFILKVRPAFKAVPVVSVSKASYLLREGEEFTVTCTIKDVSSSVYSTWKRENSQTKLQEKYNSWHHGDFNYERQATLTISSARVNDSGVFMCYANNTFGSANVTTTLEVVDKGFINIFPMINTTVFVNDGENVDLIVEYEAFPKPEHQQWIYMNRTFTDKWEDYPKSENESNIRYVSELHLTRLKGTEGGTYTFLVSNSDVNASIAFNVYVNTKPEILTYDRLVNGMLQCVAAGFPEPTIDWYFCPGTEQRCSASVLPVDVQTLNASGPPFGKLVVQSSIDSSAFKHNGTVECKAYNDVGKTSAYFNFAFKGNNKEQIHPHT
- test_name: SPR, single-cycle kinetics, Cynomolgus C-kit
pKd values, listed per item
Conceptually, pKd converts a concentration in mol/L into minus its log10.

Record excerpt, results attached:
{"columns": ["binder", "quantity_name", "recorded_result"],
 "data": [
  ["MH1/F6.12 bispecific (parental, before pI engineering) (bispecific antibody, V domains shown, Knob-in-hole IgG1null bispecific with human Ckappa; also called parental bispecific MH1/F6.12) VH 1: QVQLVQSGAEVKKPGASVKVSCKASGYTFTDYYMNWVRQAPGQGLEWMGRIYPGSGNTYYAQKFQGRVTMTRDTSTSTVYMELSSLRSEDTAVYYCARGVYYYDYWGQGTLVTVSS VH 2: EVQLVQSGAEVKKPGESLKISCKGSGYRFASNWIGWVRQMPGKGLEWMGEIYPGDSNTRYSPSFQGQVTISADKSISTAYLQWSSLKASDTAMYYCARKDYYYGIMDVWGQGTTVTVSS VL: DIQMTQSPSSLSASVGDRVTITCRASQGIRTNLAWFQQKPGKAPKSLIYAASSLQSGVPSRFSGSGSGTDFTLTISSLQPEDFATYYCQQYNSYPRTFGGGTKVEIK", "pKd", 7.28],
  ["FJ2156_MH1_A x F6_12B huIgG1 KIH (bispecific antibody, V domains shown, also called MH1_A/F6.12_B) VH 1: EVQLVQSGAEVKKPGASVKVSCKASGYTFTDYYMNWVRQAPGQGLEWMGRIYPGSGNTYYAQKFQDRVTMTRDTSTSTVYMELSSLRSEDTAVYYCARGVYYYDYWGQGTLVTVSS VH 2: QVQLVQSGAEVKKPGESLKISCKGSGYRFASNWIGWVRQMPGKGLQWMGEIYPGDSNTRYSPSFQGQVTISADKSISTAYLQWSSLKASDTAMYYCARKDYYYGIMDVWGQGTTVTVSS VL: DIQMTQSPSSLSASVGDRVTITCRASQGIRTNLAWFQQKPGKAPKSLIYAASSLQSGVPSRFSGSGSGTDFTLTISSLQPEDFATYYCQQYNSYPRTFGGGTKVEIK", "pKd", 7.02],
  ["MH1_C/F6.12_D bispecific (pI-engineered) (bispecific antibody, V domains shown, Knob-in-hole IgG1null bispecific with human Ckappa) VH 1: QVQLVQSGAEVKEPGASVKVSCKASGYTFTDYYMNWVRQAPGQGLEWMGRIYPGSGNTYYAQNFQGRVTMTRDTSTSTVYMELSSLRSEDTAVYYCARGVYYYDYWGQGTLVTVSS VH 2: QVQLVQSGAEVKKPGESLKISCKGSGYRFASNWIGWVRQMPGKGLEWMGEIYPGDSNTRYSPSFQGQVTISADKSISTAYLQWSRLKASDTAMYYCARKDYYYGIMDVWGQGTTVTVSS VL: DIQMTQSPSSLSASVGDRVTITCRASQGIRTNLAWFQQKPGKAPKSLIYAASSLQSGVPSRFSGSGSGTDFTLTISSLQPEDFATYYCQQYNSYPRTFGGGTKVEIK", "pKd", 7.28],
  ["FJ2156_MH1_C x F6_12B huIgG1 KIH (bispecific antibody, V domains shown, also called MH1_C/F6.12_B) VH 1: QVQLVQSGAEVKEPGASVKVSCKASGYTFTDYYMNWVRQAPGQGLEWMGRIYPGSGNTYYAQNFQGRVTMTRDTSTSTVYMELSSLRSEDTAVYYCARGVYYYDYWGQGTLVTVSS VH 2: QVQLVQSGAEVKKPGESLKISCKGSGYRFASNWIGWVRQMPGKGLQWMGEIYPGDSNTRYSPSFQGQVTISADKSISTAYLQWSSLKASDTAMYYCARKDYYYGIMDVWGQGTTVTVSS VL: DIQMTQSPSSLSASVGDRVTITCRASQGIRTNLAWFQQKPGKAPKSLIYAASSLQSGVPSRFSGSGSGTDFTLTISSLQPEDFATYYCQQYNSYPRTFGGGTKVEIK", "pKd", 7.28]
]}

Record FJ2156_MH1_A x F6_12C huIgG1 KIH (bispecific antibody, V domains shown, also called MH1_A/F6.12_C) VH 1: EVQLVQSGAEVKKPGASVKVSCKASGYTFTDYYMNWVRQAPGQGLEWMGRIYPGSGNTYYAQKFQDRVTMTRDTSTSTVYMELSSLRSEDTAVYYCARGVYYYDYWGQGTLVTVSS VH 2: QVQLVQSGAEVKKPGESLKISCKGSGYRFASNWIGWVRQMPGKGLEWMGEIYPGDSNTRYRPSFQGQVTISADKSISTAYLQWSSLKASDTAMYYCARKDYYYGIMDVWGQGTTVTVSS VL: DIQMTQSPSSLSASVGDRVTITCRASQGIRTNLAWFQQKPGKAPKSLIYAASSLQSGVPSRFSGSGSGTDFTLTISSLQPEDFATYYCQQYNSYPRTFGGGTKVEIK . Reported pKd: 7.04
